Molecular target: KCNQ 2/3 channels (Homo sapiens, UniProt O43525+O43526)
Construct: expressed in transfected cells; host or cells: HEK293
Assay: KCNQ 2/3 channel activation, thallium flux FLIPR assay (BTC-AM dye)
Assay type: cell-based
Settings: HEK293, maximum response relative to the response of 10 μM retigabine (set at 100%); HEK293 KCNQ2/KCNQ3 cells; read-out: % MAX
Emax of 70% or higher: Condition met. Under 70%: Condition not met.

query: Quick check, Emax >= 70%? N#Cc1ccc(S(=O)(=O)c2nn(NC(=O)C[C@H]3C[C@@H]4CC[C@H]3C4)c(=O)c3ccccc23)cc1 (racemic)
result: Condition met

query: Determine whether measured Emax meets or exceeds 70% for `CN(Cc1ccccc1)c1nn(NC(=O)CC(C)(C)c2ccccc2)c(=O)c2ccccc12`
result: Condition met

query: Is it the case that `O=C(Cc1cccc(OC(F)(F)F)c1)Nn1nc(N2CCOCC2)c2ccccc2c1=O` has Emax reaching or exceeding 70%?
result: Condition met

query: Evaluate `O=C(Cc1cc(F)cc(F)c1)Nn1nc(N2CCSCC2)c2ccccc2c1=O` : Emax at minimum 70%?
result: Condition met

query: Is it the case that O=C(CC1CC2CCC1C2)Nn1nc(-c2ccccn2)c2ccccc2c1=O (racemic) has Emax reaching or exceeding 70%?
result: Condition met

query: Evaluate `Cc1ccsc1-c1nn(NC(=O)Cc2cc(F)cc(F)c2)c(=O)c2ccccc12` : Emax at minimum 70%?
result: Condition met

query: Please tell me: is the compound `O=C(CC1(O)CCCCC1)Nn1nc(-c2ccnc(Cl)c2)c2ccccc2c1=O` at or over 70% in terms of Emax?
result: Condition not met

query: I'd appreciate it if you could say whether O=C(CC1CC2CCC1C2)Nn1nc(C(=NO)c2ccccc2)c2ccccc2c1=O (racemic) has Emax at least equal to 70%.
result: Condition met

query: Record O=C(CC1CC2CCC1C2)Nn1nc(N2CCSCC2)c2ccccc2c1=O (racemic) ; criterion: Emax no lower than 70%. Met?
result: Condition met

query: Given CC(C(=O)O)c1nn(NC(=O)Cc2ccc(Cl)cc2)c(=O)c2ccccc12 (centres unmarked) , state whether its Emax is at least 70%.
result: Condition not met

query: Check the entry `COC(=O)N[C@H](C(=O)NCc1nn(NC(=O)Cc2ccc(Cl)cc2)c(=O)c2ccccc12)C(C)C` : does Emax equal or exceed 70%?
result: Condition not met

query: I'd appreciate it if you could say whether `CS(=O)(=O)c1ccc(CC(=O)Nn2nc(S(=O)(=O)c3ccccc3)c3ccccc3c2=O)cc1` has Emax at least equal to 70%.
result: Condition not met

query: Dear colleague, could you confirm whether `O=C(Cc1ccc(Cl)cc1)Nn1nc(C(=O)O)c2ccccc2c1=O` has Emax at or above 70%?
result: Condition not met

query: hey, is Emax for this one >= 70%? `O=C(Cc1cccc(Cl)c1)Nn1nc(N2CCOCC2)c2ccccc2c1=O`
result: Condition met

query: Does the compound O=C(CC1CC2CCC1C2)Nn1nc(N2CCOCC2)c2ccccc2c1=O (racemic) have recorded Emax that is 70% or more?
result: Condition met

query: Confirm if Emax reported for the compound `CC(C)(C)CC(=O)Nn1nc(N2CCOCC2)c2ccccc2c1=O` is 70% or above.
result: Condition met

query: In plain terms: is recorded Emax at least 70% for CC(C)(C)OC(=O)NC(c1ccccc1)c1nn(NC(=O)CC2CC3CCC2C3)c(=O)c2ccccc12 (racemic) ?
result: Condition met

query: Is reported Emax greater than or equal to 70% here: `O=C(Cc1ccc(Cl)cc1)Nn1nc(SCc2ccccc2)c2ccccc2c1=O`
result: Condition met

query: Quick check, Emax >= 70%? `CC(C)(C)COC(=O)NCc1nn(NC(=O)Cc2ccc(Cl)cc2)c(=O)c2ccccc12`
result: Condition not met

query: In plain terms: is recorded Emax at least 70% for `O=C(Cc1cc(F)cc(F)c1)Nn1nc(-c2ccccn2)c2ccccc2c1=O` ?
result: Condition met

query: Does the reported Emax for O=C(CC1CC2CCC1C2)Nn1nc(Sc2ccccc2)c2ccccc2c1=O (racemic) fall at or above the 70% mark?
result: Condition met

query: Determine whether measured Emax meets or exceeds 70% for O=C(CC1CC2CCC1C2)Nn1nc(N2CCS(=O)(=O)CC2)c2ccccc2c1=O (racemic)
result: Condition met

query: Item N#Cc1cc(-c2nn(NC(=O)CC3CC4CCC3C4)c(=O)c3ccccc23)ccn1 (racemic) with Emax of 70% or above?
result: Condition met

query: Dear colleague, could you confirm whether O=C(CC1CC2CCC1C2)Nn1nc(Nc2cccc(Cl)c2)c2ccccc2c1=O (racemic) has Emax at or above 70%?
result: Condition not met

query: Reported Emax reaches at least 70% for CC(C)(C)OC(=O)N1CCN(C(=O)c2nn(NC(=O)CC3CC4CCC3C4)c(=O)c3ccccc23)CC1 (racemic) ?
result: Condition met

query: Hi, just wondering whether `COc1ccccc1CC(=O)Nn1nc(N2CCOCC2)c2ccccc2c1=O` shows Emax of 70% or higher.
result: Condition not met

query: Identify whether the reported Emax of the following compound is 70% or greater: `O=C(Cc1ccc(Cl)cc1)Nn1nc(Sc2ccc(Br)cc2)c2ccccc2c1=O`
result: Condition met

query: Test whether the compound CCOC(=O)C(NC(=O)Cc1ccc(Cl)cc1)c1nn(NC(=O)Cc2ccc(Cl)cc2)c(=O)c2ccccc12 (centres unmarked) records Emax of 70% or higher.
result: Condition not met

query: Quick check, Emax >= 70%? `Cc1ccccc1CC(=O)Nn1nc(N2CCOCC2)c2ccccc2c1=O`
result: Condition not met

query: Threshold query (Emax >= 70%) on O=C(CC1CC2CCC1C2)Nn1nc(C(=O)N2CCOCC2)c2ccccc2c1=O (racemic)
result: Condition met

query: Is Emax at least 70%? Consider O=C(CC1CC2CCC1C2)Nn1nc(-c2ccnc(C(F)(F)F)c2)c2ccccc2c1=O (racemic)
result: Condition met

* * *

Target: KCNQ 2/3 channels (Homo sapiens, UniProt O43525+O43526)
Assay: KCNQ 2/3 channel activation, thallium flux FLIPR assay (BTC-AM dye)
Details: HEK293 cells stably expressing human KCNQ2 and KCNQ3 subunits; thallium-induced fluorescence, 4 min compound incubation
I'd be grateful if you could share measured EC50 for these entries.
Could you give me the number in µM? Just the number is fine.

query: Value lookup for EC50; key = `O=C(Cc1cc(F)cc(F)c1)Nn1nc(Sc2ccccc2)c2ccccc2c1=O`
result: 0.0381

query: # lookup: EC50 of O=C(CC1CC2CCC1C2)Nn1nc(C(=O)Nc2ccc(Cl)cc2)c2ccccc2c1=O (racemic)
result: 2.04

query: Data request, read-out EC50, for `C[C@@H]1CN(c2nn(NC(=O)Cc3cc(F)cc(F)c3)c(=O)c3ccccc23)C[C@H](C)O1`
result: 0.998

query: If you can, please state the reported EC50 value of O=C(CC1CC2CCC1C2)Nn1nc(-c2ccc(F)nc2)c2ccccc2c1=O (racemic) .
result: 0.408

* * *

Target: KCNQ 2/3 channels (Homo sapiens, UniProt O43525+O43526)
Construct: expressed in transfected cells; host or cells: HEK293
Assay: KCNQ 2/3 channel activation, thallium flux FLIPR assay (BTC-AM dye)
Assay type: cell-based
Details: HEK293, maximum response relative to the response of 10 μM retigabine (set at 100%); HEK293 KCNQ2/KCNQ3 cells; read-out: % MAX
Assignment: determine reported Emax for the given molecules.
Kindly answer with a numeric value in %, unit omitted.

query: Any idea what Emax was measured for `O=C(Cc1cc(F)cc(F)c1)Nn1nc(Oc2ccccc2)c2ccccc2c1=O` ?
result: 122

query: Consider the molecule shown here: O=C(Cc1cc(F)cc(F)c1)Nn1nc([S+]([O-])c2ccccc2)c2ccccc2c1=O (stereo not drawn) What is its recorded Emax?
result: 105

query: Entry under review: `Cc1cccc(CC(=O)Nn2nc(S(=O)(=O)c3ccccc3)c3ccccc3c2=O)c1` . Reported Emax?
result: 69.9

query: Looking for the measured Emax of `O=C(Cc1ccc(Cl)cc1)Nn1nc(S(=O)(=O)c2cc[n+]([O-])cc2)c2ccccc2c1=O` , can you help?
result: 16.6

query: Consider the molecule shown here: `O=C(Cc1c(Cl)cccc1Cl)Nn1nc(N2CCOCC2)c2ccccc2c1=O` What is its recorded Emax?
result: -1.83

query: # get_value(readout='Emax', item= `O=C(Cc1cccc(F)c1F)Nn1nc(N2CCOCC2)c2ccccc2c1=O` )
result: 17.3

query: Fill blank: measured Emax of the molecule `O=C(CC1CCCCC1)Nn1nc(N2CCOCC2)c2ccccc2c1=O` is ____.
result: 153

query: Using the record for `O=C(Cc1cccc(C(F)(F)F)c1)Nn1nc(S(=O)(=O)c2ccccc2)c2ccccc2c1=O` , report its Emax.
result: 33.3

query: Which Emax value is on record for CC1CN(c2nn(NC(=O)Cc3cc(F)cc(F)c3)c(=O)c3ccccc23)CC(C)O1 (stereo not drawn) ?
result: 105

query: Recorded Emax for O=C(CC1CCCO1)Nn1nc(-c2ccnc(Cl)c2)c2ccccc2c1=O (stereo not drawn) , please?
result: 172

query: What does the data say about its Emax? Entry: O=C(CC1CC2CCC1C2)Nn1nc(-c2ccnc(Cl)c2)c2ccccc2c1=O (racemic)
result: 137

query: I would be grateful if you could share the reported Emax for `O=C(Cc1ccccc1[N+](=O)[O-])Nn1nc(N2CCOCC2)c2ccccc2c1=O` .
result: 1.59

query: Reported Emax, molecule CCOC(=O)c1nn(NC(=O)CC2CC3CCC2C3)c(=O)c2ccccc12 (racemic) : ____
result: 171

query: Entry under review: `CC(C)(C)Sc1nn(NC(=O)Cc2ccc(Cl)cc2)c(=O)c2ccccc12` . Reported Emax?
result: 120

query: Given `O=C(Cc1ccc(Cl)cc1)Nn1nc(N2CCCCC2)c2ccccc2c1=O` , state its recorded Emax.
result: 140

query: Quick one: Emax of `O=C(Cc1ccc(OC(F)(F)F)cc1)Nn1nc(N2CCOCC2)c2ccccc2c1=O` ?
result: 105

query: Quick one: Emax for `C[C@@H]1CN(c2nn(NC(=O)Cc3ccc(Cl)cc3)c(=O)c3ccccc23)C[C@H](C)O1` ?
result: 85.1

query: Reported Emax, molecule `O=C(CC12CC3CC(CC1C3)C2)Nn1nc(S(=O)(=O)c2ccccc2)c2ccccc2c1=O` : ____
result: 151

query: Find the recorded Emax belonging to `O=C(Cc1cc(F)cc(F)c1)Nn1nc(N2CCCCC2)c2ccccc2c1=O` and report it.
result: 134

query: Request the reported Emax associated with O=C(CC1CC2CCC1C2)Nn1nc(Oc2ccccc2)c2ccccc2c1=O (racemic)
result: 150

query: Item under review: `CCOC(=O)NCc1nn(NC(=O)Cc2ccc(Cl)cc2)c(=O)c2ccccc12` . Reported Emax?
result: 87.3

query: Emax for `Nc1ccc(S(=O)(=O)c2nn(NC(=O)Cc3ccc(Cl)cc3)c(=O)c3ccccc23)cc1` ?
result: 42.2

query: Returns the measured Emax for the input molecule. Input: O=C(Cc1ccc(Cl)cc1)Nn1nc([S+]([O-])c2ccccc2)c2ccccc2c1=O (stereo not drawn)
result: 119

query: Reported Emax for `CCC(C)(C)OC(=O)NCc1nn(NC(=O)Cc2ccc(Cl)cc2)c(=O)c2ccccc12` : what is it?
result: 63.8

query: I have this molecule here, `CC(C)(C)OC(=O)Nc1ccc(Sc2nn(NC(=O)Cc3ccc(Cl)cc3)c(=O)c3ccccc23)cc1` , and I need its recorded Emax.
result: 76

query: Bench note: what Emax did `O=C(Cc1cccc(O)c1)Nn1nc(N2CCOCC2)c2ccccc2c1=O` show?
result: 43.8

query: Query: Emax; subject: `O=C(Cc1ccc(Cl)cc1)Nn1nc(-c2ccnc(C(F)(F)F)c2)c2ccccc2c1=O`
result: 74.9

query: So what does the record say about Emax for O=C(CC1CC2CCC1C2)Nn1nc(C(=O)Nc2ccc(Cl)cc2)c2ccccc2c1=O (racemic) ?
result: 155

query: Quick one: Emax of O=C(CC1CC2CCC1C2)Nn1nc(S(=O)(=O)c2ccc(Br)cc2)c2ccccc2c1=O (racemic) ?
result: 164

query: Need Emax, item `Cc1ccc(S(=O)(=O)NCc2nn(NC(=O)Cc3ccc(Cl)cc3)c(=O)c3ccccc23)cc1`
result: 44.1

query: Entry `O=C(Cc1ccc(F)cc1)Nn1nc(S(=O)(=O)c2ccccc2)c2ccccc2c1=O` has what Emax?
result: 87.9

query: State the recorded Emax for this entry: `O=C(Cc1ccc(C(F)(F)F)cc1)Nn1nc(N2CCOCC2)c2ccccc2c1=O`
result: 93

query: Give its Emax value. Item: CC1CN(c2nn(NC(=O)Cc3ccc(Cl)cc3)c(=O)c3ccccc23)CC(C)O1 (stereo not drawn)
result: 85.8
